TGT: Met receptor (EGFR/Met chimeric cells, EMR) (Homo sapiens, UniProt P08581)
Construct: expressed in transfected cells; the other entry of the earlier key: EGFR (P00533, Epidermal growth factor receptor)
Sequence (P08581 with tags, fused parts or gaps): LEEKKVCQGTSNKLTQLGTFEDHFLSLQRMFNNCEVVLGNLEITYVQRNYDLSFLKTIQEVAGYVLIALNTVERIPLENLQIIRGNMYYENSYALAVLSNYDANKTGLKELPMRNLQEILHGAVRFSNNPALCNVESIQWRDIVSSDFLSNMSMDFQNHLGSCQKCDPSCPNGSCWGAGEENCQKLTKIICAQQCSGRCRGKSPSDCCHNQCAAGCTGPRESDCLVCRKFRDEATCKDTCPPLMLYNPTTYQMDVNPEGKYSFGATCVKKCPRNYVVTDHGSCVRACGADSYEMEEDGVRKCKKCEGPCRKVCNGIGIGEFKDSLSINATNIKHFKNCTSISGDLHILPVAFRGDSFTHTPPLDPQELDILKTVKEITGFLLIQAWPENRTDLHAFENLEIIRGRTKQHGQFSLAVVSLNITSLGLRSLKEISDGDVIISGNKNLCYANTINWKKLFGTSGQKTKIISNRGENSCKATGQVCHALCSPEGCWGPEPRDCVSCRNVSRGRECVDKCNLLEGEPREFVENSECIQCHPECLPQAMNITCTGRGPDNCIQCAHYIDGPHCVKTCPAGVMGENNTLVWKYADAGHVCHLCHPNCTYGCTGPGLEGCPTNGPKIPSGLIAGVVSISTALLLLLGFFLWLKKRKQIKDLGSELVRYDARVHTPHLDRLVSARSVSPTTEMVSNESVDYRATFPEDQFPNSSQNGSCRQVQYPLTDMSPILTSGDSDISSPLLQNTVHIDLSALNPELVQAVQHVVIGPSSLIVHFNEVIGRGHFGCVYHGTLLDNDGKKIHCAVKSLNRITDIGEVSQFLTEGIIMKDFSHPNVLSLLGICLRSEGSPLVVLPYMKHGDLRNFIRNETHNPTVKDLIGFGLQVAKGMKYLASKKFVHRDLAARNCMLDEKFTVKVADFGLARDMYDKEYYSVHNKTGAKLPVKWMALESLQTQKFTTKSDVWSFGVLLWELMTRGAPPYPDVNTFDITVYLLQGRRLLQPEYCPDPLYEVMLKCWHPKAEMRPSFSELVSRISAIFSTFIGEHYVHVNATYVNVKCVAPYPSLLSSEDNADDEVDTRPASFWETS
ASSAY_PROCEDURE: Met Autophosphorylation Assay
Type: biochemical
Grouping by measured Met Kinase % Inhibition (P.130) is done with the following cut points: low band: < 30%; middle band: ≥ 30% and < 70%; high band: ≥ 70%

Consider the worked cases shown below.
- CCOc1cccc(C=C2C(=O)Nc3ccc(Br)c(C)c32)c1O: high band
- Cc1c(Br)ccc2c1C(=Cc1cccc(F)c1O)C(=O)N2: high band
- Cc1cccc(C=C2C(=O)Nc3ccc(CCCl)cc32)c1: low band
- COc1cccc(C=C2C(=O)Nc3ccc(Br)c(C)c32)c1: low band
- CC(C)(C)c1ccc(C=C2C(=O)Nc3ccc(S(=O)(=O)N4CCOCC4)cc32)cc1: middle band
- Cc1c(Br)cc(Br)c2c1C(=Cc1ccc([N+](=O)[O-])cc1)C(=O)N2: middle band

Query: Exam item: assign Cc1c(Br)cc(Br)c2c1C(=C1C(=O)N(C)c3ccccc31)C(=O)N2 to the correct category.
Result: low band

Query: Exam item: assign Cc1ccc(C=C2C(=O)Nc3c(Br)cc(Br)c(C)c32)o1 to the correct category.
Result: middle band

Query: Exam item: assign Cc1c(Br)cc(Br)c2c1C(=Cc1cc(O)c(O)c(Br)c1)C(=O)N2 to the correct category.
Result: high band

Query: Exam item: assign Cc1cc(C=C2C(=O)Nc3c(Br)cc(Br)c(C)c32)oc1C to the correct category.
Result: middle band

Query: Exam item: assign Cc1cc2occ(C=C3C(=O)Nc4c(Br)cc(Br)c(C)c43)c(=O)c2cc1C to the correct category.
Result: low band

Query: Exam item: assign Cc1ccccc1C=C1C(=O)Nc2ccc(CCCl)cc21 to the correct category.
Result: low band
